Tested on: thyroid hormone receptor (rat, GH3 cells)
ASSAY_EXPLANATION: qHTS assay to identify small molecule agonists of the thyroid receptor (TR) signaling pathway (AID 743066)
EXPERIMENTAL_CONTEXT: GH3.TRE-Luc cells, TR agonist luciferase, 24 h; series mostly up to 83.9 µM
Records with an inconclusive call do not appear. Activity calls are given as the source filed them. The call rests on the fitted dose curve.
Give one outcome, nothing more. List: 1 (yes) for active, 0 (no) for inactive

Take a look at these entries with their results.
compound=Oc1ccc2c3c1O[C@H]1[C@@H](O)C=C[C@H]4[C@H](C2)NCC[C@@]341 assigned_class="0 (no)"
compound=CC(C)C[C@H]1C(=O)N2CCC[C@H]2[C@]2(O)O[C@](NC(=O)[C@@H]3C[C@@H]4c5cccc6[nH]cc(c56)C[C@H]4N(C)C3)(C(C)C)C(=O)N12 assigned_class="0 (no)"

INPUT: Called result for O=S(=O)(O)c1cc(O)ccc1O
OUTPUT: 0 (no)

INPUT: Same read-out for C[C@@H](N)C(=O)c1ccccc1 ?
OUTPUT: 0 (no)

INPUT: Same read-out for C[N+]1([O-])[C@@H]2CC(OC(=O)[C@H](CO)c3ccccc3)C[C@H]1[C@@H]1O[C@@H]12 (stereo not given in full) ?
OUTPUT: 0 (no)

INPUT: Same read-out for CC[N+](C)(CC)CCOC(=O)C(O)(c1ccccc1)c1ccccc1 ?
OUTPUT: 0 (no)

INPUT: Same read-out for Nc1ccc([N+](=O)[O-])cc1 ?
OUTPUT: 0 (no)

INPUT: Same read-out for COc1cc(C[C@H](C)N)c(OC)cc1C ?
OUTPUT: 0 (no)

INPUT: Same read-out for C[C@H]1CC[C@]2(NC1)O[C@H]1C[C@H]3[C@@H]4CC[C@H]5C[C@@H](O)CC[C@]5(C)[C@H]4CC[C@]3(C)[C@H]1[C@@H]2C ?
OUTPUT: 0 (no)

INPUT: Same read-out for CCNC1(c2cccs2)CCCCC1=O (stereo not given) ?
OUTPUT: 0 (no)

INPUT: Same read-out for CCc1cc(OC)c(C[C@@H](C)N)cc1OC ?
OUTPUT: 0 (no)
